Overview of recorded percent SOS1 degradation at 1 µM for various compounds
biological target: SOS1 in K562 cells (Homo sapiens, UniProt Q07889); construct: endogenous in cells; host or cells: K562; test: SOS1 degradation in K562 cells (Western blot); format: cell-based; conditions: 1.0 μM
Sequence (Q07889 whole entry): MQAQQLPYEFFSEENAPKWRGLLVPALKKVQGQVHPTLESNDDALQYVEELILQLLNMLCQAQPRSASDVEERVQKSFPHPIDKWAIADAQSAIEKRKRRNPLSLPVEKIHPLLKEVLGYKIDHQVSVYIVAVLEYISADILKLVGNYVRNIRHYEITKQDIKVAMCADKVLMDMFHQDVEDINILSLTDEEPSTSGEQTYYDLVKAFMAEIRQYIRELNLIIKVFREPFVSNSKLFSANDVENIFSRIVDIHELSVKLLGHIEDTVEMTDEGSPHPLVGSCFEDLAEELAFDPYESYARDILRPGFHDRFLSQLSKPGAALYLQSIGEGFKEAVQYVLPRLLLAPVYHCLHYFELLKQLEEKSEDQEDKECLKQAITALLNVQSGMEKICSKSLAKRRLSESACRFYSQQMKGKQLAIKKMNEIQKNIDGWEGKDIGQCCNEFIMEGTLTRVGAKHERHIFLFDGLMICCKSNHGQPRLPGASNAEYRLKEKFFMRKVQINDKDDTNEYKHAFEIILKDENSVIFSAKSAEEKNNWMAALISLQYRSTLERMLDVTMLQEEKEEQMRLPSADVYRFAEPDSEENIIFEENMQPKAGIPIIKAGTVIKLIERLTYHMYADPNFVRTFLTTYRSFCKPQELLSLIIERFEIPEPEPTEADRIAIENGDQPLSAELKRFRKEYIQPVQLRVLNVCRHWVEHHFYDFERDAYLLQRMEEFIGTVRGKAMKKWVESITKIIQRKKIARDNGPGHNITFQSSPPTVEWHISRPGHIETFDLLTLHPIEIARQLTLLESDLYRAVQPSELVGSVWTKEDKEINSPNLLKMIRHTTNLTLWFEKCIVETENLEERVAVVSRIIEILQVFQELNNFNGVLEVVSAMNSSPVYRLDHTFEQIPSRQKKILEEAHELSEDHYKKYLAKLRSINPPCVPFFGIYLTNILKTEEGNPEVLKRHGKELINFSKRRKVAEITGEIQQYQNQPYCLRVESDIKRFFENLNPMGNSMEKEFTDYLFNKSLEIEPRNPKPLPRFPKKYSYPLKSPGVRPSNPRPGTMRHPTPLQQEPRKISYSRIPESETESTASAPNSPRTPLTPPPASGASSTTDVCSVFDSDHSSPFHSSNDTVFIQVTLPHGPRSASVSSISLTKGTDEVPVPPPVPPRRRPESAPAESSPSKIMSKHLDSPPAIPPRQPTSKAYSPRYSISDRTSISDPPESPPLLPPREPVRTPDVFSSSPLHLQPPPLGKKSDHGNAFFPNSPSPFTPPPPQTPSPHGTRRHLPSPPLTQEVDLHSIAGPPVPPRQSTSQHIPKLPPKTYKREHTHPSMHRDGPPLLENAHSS
Record the result as number plus unit.

Reference set, count: 2
| compound | measurement.kind | result |
| --- | --- | --- |
| COc1cc2nc(C)nc(N[C@H](C)c3cc(N)cc(C(F)(F)F)c3)c2cc1O[C@H]1CCN(C(=O)CCSc2cccc3c2CN(C2CCC(=O)NC2=O)C3=O)C1 (stereo partly drawn) [SIAIS561093] | percent SOS1 degradation at 1 µM | 24.7% |
| COc1cc2nc(C)nc(N[C@H](C)c3cc(N)cc(C(F)(F)F)c3)c2cc1OC1CCN(C(=O)CCCCCCCCCCSc2cccc3c2CN(C2CCC(=O)NC2=O)C3=O)CC1 (stereo partly drawn) [SIAIS561138] | percent SOS1 degradation at 1 µM | 11% |

Next compound, please.
-- ask Reported percent SOS1 degradation at 1 µM for COc1cc2nc(C)nc(N[C@H](C)c3cc(N)cc(C(F)(F)F)c3)c2cc1OC1CCN(C(=O)CCCCSc2cccc3c2CN(C2CCC(=O)NC2=O)C3=O)CC1 (stereo partly drawn) [SIAIS561134] : what is it?
-- reply 14.2%
